Kindly supply the reported IC50 values for the records listed here.
# Tested on: IL-17A-induced G-CSF production in human normal keratinocyte (NHK)
# Method Summary: NHK assay: IL-17A-induced G-CSF production in normal human keratinocytes
# Format: cell-based
# Assay Conditions: Homo sapiens, Keratinocyte, 24 h, IL-17A 5 ng/mL, average if tested more than once

Reported IC50, compound Cc1nonc1C(=O)N[C@@H](COC1CC(F)(F)C1)c1nc2ccc([C@H](NC(=O)CC3CC(F)(F)C3)C3CC3)cc2[nH]1 [Example 256] : ____
> 100 nM

Reported IC50, compound CC(C)n1nccc1C(=O)N[C@@H](COC(C)(C)C(F)(F)F)c1nc2cc([C@H](NC(=O)CC3CC(F)(F)C3)C3CC3)ccc2[nH]1 [Example 160] : ____
< 50 nM

Reported IC50, compound C[C@@H](NC(=O)CCC(F)(F)F)c1ccc2[nH]c([C@@H](NC(=O)CC3CC3(F)F)C3CCC(F)(F)CC3)nc2c1 (single isomer, unassigned) [Example 107] : ____
> 100 nM

Reported IC50, compound C[C@@H](NC(=O)CCC(F)(F)F)c1ccc2nc([C@@H](NC(=O)c3cnnn3C3CC3)C3CCC(F)(F)CC3)[nH]c2c1 [Example 60] : ____
> 100 nM

Reported IC50, compound Cc1nonc1C(=O)N[C@H](c1nc2cc([C@@H](COC3CC3)NC(=O)C[C@H]3CC3(F)F)ccc2[nH]1)[C@@H](C)OC(C)(C)C(F)(F)F [Example 270] : ____
50 to 100 nM

Reported IC50, compound C[C@@H](NC(=O)CCC(F)(F)F)c1ccc2[nH]c([C@@H](NC(=O)c3ncnn3CCC(F)(F)F)C3CCC(F)(F)CC3)nc2c1 [Example 220] : ____
> 100 nM

Reported IC50, compound Cc1c(C(=O)N[C@H](c2nc3cc([C@@H](C)NC(=O)CCC(F)(F)F)ccc3[nH]2)C2CCC(F)(F)CC2)cnn1CCC(F)(F)F [Example 5] : ____
> 100 nM

Reported IC50, compound CC(C)n1nccc1C(=O)N[C@H](c1nc2ccc([C@H](NC(=O)CC3CC(F)(F)C3)C3CC3)cc2[nH]1)[C@@H]1CCCCO1 (relative stereo) [Example 250] : ____
50 to 100 nM

Reported IC50, compound C[C@@H](NC(=O)CCC(F)(F)F)c1ccc2[nH]c([C@@H](NC(=O)c3cnn(CCOC(F)F)c3)C3CCC(F)(F)CC3)nc2c1 [Example 27] : ____
> 100 nM

Reported IC50, compound C[C@@H](NC(=O)CCC(F)(F)F)c1ccc2[nH]c([C@@H](NC(=O)[C@H]3C[C@@H]3C#N)C3CCC(F)(F)CC3)nc2c1 (relative stereo) [Example 103] : ____
> 100 nM

Reported IC50, compound C[C@@H](NC(=O)CCC(F)(F)F)c1ccc2[nH]c([C@@H](NC(=O)c3cnnn3CC3CC3(F)F)C3CCC(F)(F)CC3)nc2c1 (some centres unmarked) [Example 80] : ____
50 to 100 nM

Reported IC50, compound C[C@@H](NC(=O)CCC(F)(F)F)c1ccc2nc([C@@H](NC(=O)c3cnn(CCC(C)(C)C)n3)C3CCC(F)(F)CC3)[nH]c2c1 [Example 67] : ____
> 100 nM

Reported IC50, compound C[C@@H](NC(=O)CCC(F)(F)F)c1ccc2[nH]c([C@@H](NC(=O)C3CC34CC4)C3CCC(F)(F)CC3)nc2c1 (some centres unmarked) [Example 110] : ____
> 100 nM

Reported IC50, compound Cc1nocc1C(=O)N[C@@H](COC(C)(C)C(F)(F)F)c1nc2ccc([C@H](NC(=O)CC3CC(F)(F)C3)C3CC3)cc2[nH]1 [Example 77] : ____
50 to 100 nM

Reported IC50, compound C[C@@H](NC(=O)CCC(F)(F)F)c1ccc2[nH]c([C@@H](NC(=O)c3cnnn3CCOC(F)(F)F)C3CCC(F)(F)CC3)nc2c1 [Example 36] : ____
50 to 100 nM

Reported IC50, compound CC(C)c1snnc1C(=O)N[C@H](c1nc2cc([C@@H](C)NC(=O)CCC(F)(F)F)ccc2[nH]1)C1CCC(F)(F)CC1 [Example 206] : ____
< 50 nM

Reported IC50, compound CC(C)n1ncc(F)c1C(=O)NC(CC(C)(C)C(F)(F)F)c1nc2cc([C@@H](C)NC(=O)CCC(F)(F)F)ccc2[nH]1 (single isomer, unassigned) [Example 194] : ____
> 100 nM

Reported IC50, compound C[C@@H](NC(=O)CCC(F)(F)F)c1ccc2[nH]c([C@@H](NC(=O)c3cnn(CCC(F)(F)F)c3)C3CCC(F)(F)CC3)nc2c1 [Example 1] : ____
> 100 nM

Reported IC50, compound CC(C)n1nccc1C(=O)N[C@H](c1nc2ccc([C@H](NC(=O)CC3CC(F)(F)C3)C3CC3)cc2[nH]1)[C@@H]1C[C@@H]2[C@H](C1)C2(F)F [Example 238] : ____
< 50 nM

Reported IC50, compound CC(C)(OC[C@H](NC(=O)c1nonc1C1CC1)c1nc2ccc([C@H](NC(=O)CC3CC(F)(F)C3)C3CC3)cc2[nH]1)C(F)(F)F [Example 159] : ____
< 50 nM

Reported IC50, compound C[C@@H](NC(=O)CC1CC(F)(F)C1)c1ccc2nc(C(COC(C)(C)C(F)(F)F)NC(=O)c3nonc3C3CC3)[nH]c2c1 (single isomer, unassigned) [Example 152] : ____
< 50 nM

Reported IC50, compound CC(C)n1cccc1C(=O)N[C@H](c1nc2cc([C@@H](C)NC(=O)CCC(F)(F)F)ccc2[nH]1)C1CCC(F)(F)CC1 [Example 213] : ____
< 50 nM

Reported IC50, compound CC(C)(OC[C@H](NC(=O)c1nonc1OCC(F)(F)F)c1nc2cc([C@H](NC(=O)CC3CC(F)(F)C3)C3CC3)ccc2[nH]1)C(F)(F)F [Example 267] : ____
< 50 nM
